Sourced from ChEMBL document CHEMBL2311250

assay: Aqueous solubility of the compound at ph 6.5; format: physicochemical
This section presents compounds with their documented log10 of solubility values.
Record value = log10 of solubility given in µM.

In the examples that follow, each entry is paired with its recorded log10 of solubility.
>>> val("CN1CCC(NC(=O)c2cnc(Nc3cc(Cl)cc(Cl)c3)nc2N[C@@H]2COC[C@H]2O)CC1")
1.60
>>> val("CN1CCC(NC(=O)c2cnc(Nc3cc(Cl)cc(Cl)c3)nc2N[C@H]2CCCCNC2=O)CC1")
0.36
>>> val("O=C(NCCCN1CCCC1=O)c1cnc(NCc2cc(Cl)ccc2Cl)nc1NC1CCCC1")
0.59
>>> val("COc1ccccc1CNc1ncc(C(=O)NCCCN2CCCC2=O)c(NC2CCCC2)n1")
1.91

Consider the additional compound presented here.
Noted for O[C@@H]1COC[C@H]1Nc1nc(Nc2cc(Cl)cc(Cl)c2)ncc1-c1cccnc1 : its log10 of solubility reads 2.30
